Some molecules, each annotated with its measured remaining activity at 10 µM.
- Assayed Target: CDK6/cyclinD3 (Homo sapiens)
- Construct: purchased Eurofins Pharma Discovery Services (KinaseProfiler; Cerep BioPrint panel)
- Sequence (Q00534 whole entry): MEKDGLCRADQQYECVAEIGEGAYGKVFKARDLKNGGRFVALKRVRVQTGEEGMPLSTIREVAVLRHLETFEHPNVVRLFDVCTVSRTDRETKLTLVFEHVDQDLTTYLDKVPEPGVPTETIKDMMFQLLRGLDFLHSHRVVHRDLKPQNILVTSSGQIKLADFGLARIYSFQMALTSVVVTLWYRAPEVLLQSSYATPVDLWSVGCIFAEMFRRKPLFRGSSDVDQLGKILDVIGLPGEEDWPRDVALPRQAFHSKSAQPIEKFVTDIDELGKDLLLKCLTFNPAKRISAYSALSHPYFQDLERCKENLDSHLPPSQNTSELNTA
- Sequence (P30281 whole entry partner): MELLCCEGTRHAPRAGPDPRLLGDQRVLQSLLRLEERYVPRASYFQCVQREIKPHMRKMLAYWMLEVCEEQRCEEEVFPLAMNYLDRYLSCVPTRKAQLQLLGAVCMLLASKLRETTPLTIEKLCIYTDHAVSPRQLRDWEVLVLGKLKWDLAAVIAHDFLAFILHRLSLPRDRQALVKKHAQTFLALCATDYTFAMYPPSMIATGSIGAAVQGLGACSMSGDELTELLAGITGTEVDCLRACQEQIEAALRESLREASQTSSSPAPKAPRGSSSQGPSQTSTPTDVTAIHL
- Assay Remarks: kinase selectivity panel
- Format: biochemical
- Details: read-out: percentage of control activity (POC), CDK6/cyclinD3

Molecule	remaining activity at 10 µM [%]
Cc1ccc(C(=O)NCC2CC2)cc1-c1ccc2c(c1)NC(=O)C21CCCC1	97
CC(C)(C)N1CCC(c2cc(-c3ccc(F)cc3Cl)c3cc[n+]([O-])c(-c4c(Cl)cccc4Cl)c3n2)CC1	102
CS(=O)(=O)N1CCN(c2ccc(Nc3ncc(C(N)=O)c(NC4CC4)n3)cc2)CC1	23
COc1c(NC(=O)c2ccc(C)c(-c3nnc4c(NCC(C)(C)C)nccn34)c2)cc(C(C)(C)C)cc1NS(C)(=O)=O [compound 7, reference compound]	100
Cn1cc(-c2cccc(-c3nc(C(=O)NC4C5CC6CC4CC(O)(C6)C5)c(N)nc3N)c2)cn1 (centres unmarked)	93
